biological target: SpSla1-D1-D2; experiment: SPOT peptide array binding signal intensity (averaged, normalized) (arbitrary units (background-subtracted, floor 0; scale differs between SH3 domains)); higher = stronger binding of the SH3 domain to the peptide
value.kind: SPOT peptide array binding signal intensity
One number for each entry.

INSERT INTO results (binder, val) VALUES
  ('QQNRPLPQLPNRNNR', 333),
  ('NNFYRPLLRSVLVLL', 4),
  ('PLQSKIPMLPSRRTM', 68),
  ('PPPPPPPPPPPLPQS', 1.5),
  ('FPGKKSPRLPHRNKK', 5);

Need SPOT peptide array binding signal intensity for each of these binders.
1. ISNFVPPNLPMRRFK
2. NHSRSLFSLPGNQQS

1. 69
2. 3

Need SPOT peptide array binding signal intensity for each of these binders.
1. RPVPRRPSQPLNTLS
2. KKEKKPPKIPKKVYT
3. NMLKKKPLKKPLKRF
4. AGKRRLPLVRFKASD
5. NMLSRPRLAKLPSIR
6. RMVRRRPLRVQFSAR
7. RRGPAPPPPPRASRP

[13, 4, 9, 4, 8, 15, 571]

Need SPOT peptide array binding signal intensity for each of these binders.
1. VFQFQMPTTPISTKM
2. RSKRLFPVRPMATAH
3. RAPPPVPKKPSSRIA

1: 3; 2: 1; 3: 576
